The origin of these recorded values is the supplement of paper PMC6555819.

Tested on: LXRb homodimer (NR concentration 270 nM)
procedure details: PBM binding z-score (relative to random genomic background probes); higher = stronger binding; sequences stand for … in GC…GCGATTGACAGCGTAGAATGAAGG
Class assignment keyed on PBM binding z-score, ranges c1 (below -0.3), c2 (-0.3 to below 0.2), c3 (0.2 or more)

Observe how each entry below is paired with its result.
GCTCGGAGGACAAGGTCAGAGCTTTGTCCGTAGA : c1
TCCTATAGGTAAAGGTGAAAGTCGAACGATATGA : c2
CCTATTAGTTGACCATAAGGGCAACCGCAGCTCG : c3
CCTAGTTCGTCAAGGTCACACACGCTATAGGTAC : c3

Entry `AGAATGAGGTTATTAAAATCAGGGAATTGCGGTC` belongs to which category?
c2

Entry `CGAACTAGATCATTGACAGGACAGTGAATAGTAA` belongs to which category?
c2

Entry `TAGCCTAGGTCAGATCGTGCCAGTATACGCTATA` belongs to which category?
c2

Entry `CGAACGACGGCATGAGTTGATAGCAAATGCCGAT` belongs to which category?
c1

Entry `CATACAGGGTCAGCTAGGCCAGAGTTGGGACGGC` belongs to which category?
c3

Entry `AACTCTAGGTAAAAGTTCAGTGAATCCCGAGGAT` belongs to which category?
c2
